Just for reference, patent US20240139178A1 is where these values come from.

Target: Aβ1-42 (Homo sapiens, UniProt P05067)
Construct: human A81-42 monomers (UniProtKB-P05067, a.a. 672-713)
Sequence (P05067 672-713): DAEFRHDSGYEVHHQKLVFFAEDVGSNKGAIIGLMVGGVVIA
Assay: Aβ disaggregation test of rifamycin-based derivatives by Thioflavin T analysis
Format: biochemical
Conditions: 50 μM compound, 50 μM Aβ1-42 aggregated 3 days, then 2 days of reaction
Value Type: Aβ disaggregation effect compared to the control

Field: example entries. Status: answers known.
Molecule	Value Reported
CO[C@H]1/C=C/O[C@@]2(C)Oc3c(C)c(O)c4c(O)c(c(/C=N/N5CCN(C6CCCC6)CC5)c(O)c4c3C2=O)NC(=O)/C(C)=C\C=C\[C@H](C)[C@H](O)[C@@H](C)[C@@H](O)[C@@H](C)[C@H](OC(C)=O)[C@@H]1C [rifapentine]	≥ 90%
COC1C=COC2(C)Oc3c(C)c(O)c4c(O)c(c5c(c4c3C2=O)=NC2(CCN(CC(C)C)CC2)N=5)NC(=O)C(C)=CC=CC(C)C(O)C(C)C(O)C(C)C(OC(C)=O)C1C (stereo not shown) [ripabutin]	about 50%
CO[C@H]1/C=C/O[C@@]2(C)Oc3c(C)c(O)c4c(O)c(cc(O)c4c3C2=O)NC(=O)/C(C)=C\C=C\[C@H](C)[C@H](O)[C@@H](C)[C@@H](O)[C@@H](C)[C@H](OC(C)=O)[C@@H]1C [rifamycin SV]	about 50%
CO[C@H]1/C=C/O[C@@]2(C)Oc3c(C)c(O)c4c(O)c(c(/C=N/N5CCN(C)CC5)c(O)c4c3C2=O)NC(=O)/C(C)=C\C=C\[C@H](C)[C@H](O)[C@@H](C)[C@@H](O)[C@@H](C)[C@H](OC(C)=O)[C@@H]1C [rifampicin]	about 50%

Now look at this one.
Req: Supply Aβ disaggregation effect compared to the control value. Item: CO[C@H]1/C=C/O[C@@]2(C)Oc3c(C)c(O)c4c(c3C2=O)C(=O)C=C(NC(=O)/C(C)=C\C=C\[C@H](C)[C@H](O)[C@@H](C)[C@@H](O)[C@@H](C)[C@H](OC(C)=O)[C@@H]1C)C4=O [rifamycin S]
Resp: 25%
